molecular target: Aurora kinase A (Homo sapiens, UniProt O14965); test: Inhibition of Aurora A (unknown origin)
Sequence (O14965 whole entry): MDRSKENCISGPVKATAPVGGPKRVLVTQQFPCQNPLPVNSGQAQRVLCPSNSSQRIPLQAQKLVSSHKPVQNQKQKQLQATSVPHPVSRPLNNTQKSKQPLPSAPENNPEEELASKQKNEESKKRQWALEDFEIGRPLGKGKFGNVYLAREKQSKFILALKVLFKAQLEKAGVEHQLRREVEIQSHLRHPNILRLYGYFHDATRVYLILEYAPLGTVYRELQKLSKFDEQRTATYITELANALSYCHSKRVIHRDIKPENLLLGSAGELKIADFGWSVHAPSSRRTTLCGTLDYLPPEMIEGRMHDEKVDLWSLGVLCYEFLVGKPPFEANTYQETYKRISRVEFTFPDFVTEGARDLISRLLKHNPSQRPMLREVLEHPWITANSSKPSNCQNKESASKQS
Give pIC50 for every item shown.
API: returns pIC50 as number; meaning -log10 of concentration in mol/L.

Which pIC50 is listed for O=C1c2ccccc2C(=O)c2c(O)c(CCl)cc(O)c21 ?
6.92

Entry CC1=C(Br)C(=O)c2ccccc2C1=O : reported pIC50 = ?
7.05

Entry O=C1C=C(Cl)C(=O)c2c(O)cccc21 : reported pIC50 = ?
6.82

Reported pIC50 for O=C1C=CC(=O)c2c(O)cccc21 : what is it?
7.30

* * *

species on record: Homo sapiens; experiment: Selectivity ratio of IC50 for inhibition of Aurora B (unknown origin) to IC50 for inhibition of Aurora A (unknown origin)
Consider the following compounds; for each one, report its Ratio IC50.
Respond with the number and no other words.

Using the record for O=C1c2ccccc2C(=O)c2c(O)c(CCl)cc(O)c21 , report its Ratio IC50.
3.42

What Ratio IC50 value was documented for this compound, O=C1C=C(Cl)C(=O)c2c(O)cccc21 ?
12

Endpoint output: Ratio IC50 of CC1=C(Br)C(=O)c2ccccc2C1=O . Value?
10.7

I am curious: what Ratio IC50 value has been reported for O=C1C=CC(=O)c2c(O)cccc21 ?
12.4
